SYSTEM_NAME: T1, His-LIN28A (UniProt Q9H9Z2 1-209)
T1 chain: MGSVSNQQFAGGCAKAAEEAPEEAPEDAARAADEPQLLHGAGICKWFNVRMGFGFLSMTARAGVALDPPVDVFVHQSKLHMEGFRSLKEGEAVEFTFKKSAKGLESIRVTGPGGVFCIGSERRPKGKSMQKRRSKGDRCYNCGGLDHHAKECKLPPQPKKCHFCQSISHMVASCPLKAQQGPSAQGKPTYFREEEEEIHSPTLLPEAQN
EXPERIMENT_DESCRIPTION: SPR

[
  {
    "BINDER": "SSADEKRYRALKRTAERELLMNA [P8]",
    "VALUE_UNIT": "µM",
    "Kd": 5.2
  }
]

Hey, just so you know, these numbers are from paper PMC10762078.
